experiment summary: blocking HSF1-driven luciferase expression – cell-based, NIH3T3, luminescence, primary screen (AID 2098);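 note: luciferase reports HSF-1 transcriptional activity via heat shock element; 0% = median of DMSO wells and -100% = zero luminescence signal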
condition label: NIH3T3-HGL HSE-luciferase, MG132-induced, luminescence 8 h; hits give low values; screened at 7.5 µM (by protocol)
Among all 300,000 compounds or so, about 2,300 (0.77%) were called active. The entries come from a sample that favours actives as a whole.
# activity change, negative = inhibition annotations
Response body: numeric value in %, unit text excluded.

molecule: O=C(c1ccc(Cl)cc1)c1ccc(OCC(O)CN2CCCCC2)cc1 (stereo not given)
measured metric: activity change, negative = inhibition
unit label: %
numeric readout: -7.88

molecule: CC1(C)O[C@@H]2CC3C4C[C@H](F)C5=CC(=O)C=CC5(C)C4C(O)CC3(C)[C@]2(C(=O)CO)O1 (stereo not given in full)
measured metric: activity change, negative = inhibition
unit label: %
numeric readout: -32.3

molecule: Cc1cccc(-n2ncc(C#N)c2-n2cccc2)c1
measured metric: activity change, negative = inhibition
unit label: %
numeric readout: 2.7

molecule: CCc1ccc(C(CNc2nc(C(F)(F)F)nc3ccccc23)N(C)C)cc1 (stereo not given)
measured metric: activity change, negative = inhibition
unit label: %
numeric readout: -82

molecule: CCN(CC)CCNC(=O)CCCCCn1c(=O)[nH]c2cc(C(=O)OC)ccc2c1=O
measured metric: activity change, negative = inhibition
unit label: %
numeric readout: -8.49

Sample Cc1cc(C(=O)CSc2nc(N)cc(=O)[nH]2)c(C)n1Cc1ccco1 ; activity change, negative = inhibition observed: -33.6

Sample Cc1cccc(-n2ncc(Cl)c(Cl)c2=O)c1 ; activity change, negative = inhibition observed: -95.3

Sample COc1ccc(C(=O)NC(=S)Nc2ccccc2N2CCN(S(C)(=O)=O)CC2)cc1OC ; activity change, negative = inhibition observed: -1.5

Sample CC1CCN(CC(O)COc2ccc(C(=O)c3ccccc3)cc2)CC1 (stereo not given) ; activity change, negative = inhibition observed: -15

Sample O=C(NC(=S)Nc1ccccc1N1CCCCC1)c1ccc(F)cc1 ; activity change, negative = inhibition observed: -7.72

###

experiment summary: blocking HSF1-driven luciferase expression – cell-based, NIH3T3, luminescence, primary screen (AID 2098);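 note: luciferase reports HSF-1 transcriptional activity via heat shock element; 0% = median of DMSO wells and -100% = zero luminescence signal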
condition label: NIH3T3-HGL HSE-luciferase, MG132-induced, luminescence 8 h; hits give low values; screened at 7.5 µM (by protocol)
Out of some 300,000 compounds screened, about 2,300 (0.77%) were called active. The entries come from a sample that favours actives as a whole.
measured metric: activity change, negative = inhibition

molecule: COc1cccc(OCC(=O)NNC(=O)c2cnccn2)c1
activity change, negative = inhibition: -5.69% (inactive)
//
molecule: COc1ccc(C(=O)NNC(=O)c2cnccn2)cc1[N+](=O)[O-]
activity change, negative = inhibition: -85.3% (active)
//
molecule: O=C(CN1CCOCC1)Nc1cccc([N+](=O)[O-])c1
activity change, negative = inhibition: 6.69% (inactive)

Sample O=C(CSc1nn(-c2ccc(F)cc2)c(=S)s1)NC1CCS(=O)(=O)C1 (configuration not stated) ; activity change, negative = inhibition observed: 2.24% (inactive)

Sample CCC(=O)c1ccc(OCC(=O)OCC(=O)NC2CCCCCC2)cc1 ; activity change, negative = inhibition observed: -9.22% (inactive)

Sample O=C(CSc1ncccn1)NCCc1ccccc1 ; activity change, negative = inhibition observed: -68.6% (active)

Sample Cc1cc2oc3ccc(NCCC4CCCN4C)cc3c(=O)c2cc1C (configuration not stated) ; activity change, negative = inhibition observed: 6.14% (inactive)

Sample CCN(Cc1ccccc1)C(=O)Cc1ccc(OC)c(S(=O)(=O)N2CCOCC2)c1 ; activity change, negative = inhibition observed: -13.3% (inactive)
